# protocol-text: self-splicing fitness, log relative to wild type (ln ratio); higher = more splicing; Tetrahymena group I intron in knt gene, E. coli kanamycin selection, DiMSum; sequences stand for … in CUCUCU…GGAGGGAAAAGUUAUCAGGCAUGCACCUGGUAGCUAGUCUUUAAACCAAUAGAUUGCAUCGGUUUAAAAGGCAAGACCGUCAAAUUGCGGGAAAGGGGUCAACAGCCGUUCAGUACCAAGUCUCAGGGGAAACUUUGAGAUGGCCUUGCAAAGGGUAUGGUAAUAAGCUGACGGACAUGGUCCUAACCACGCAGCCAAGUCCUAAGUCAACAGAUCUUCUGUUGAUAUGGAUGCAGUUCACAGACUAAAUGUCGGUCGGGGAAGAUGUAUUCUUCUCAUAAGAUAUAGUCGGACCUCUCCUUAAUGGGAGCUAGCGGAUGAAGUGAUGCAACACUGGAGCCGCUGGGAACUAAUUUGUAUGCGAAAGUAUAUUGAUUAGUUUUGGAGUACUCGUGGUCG;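 note: selection with 25 µg/mL kanamycin versus none on LB agar overnight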
# measurement-parameters: 37 °C
measured-property: self-splicing fitness (ln)
Just the number, please, no unit attached.

Take a look at these entries with their results.
{"sequence-text": "UGUAAGCAAUAUUACGAUUU", "self-splicing fitness (ln)": -1.24}
{"sequence-text": "UAAAAGCAAUAUUACGUACC", "self-splicing fitness (ln)": -0.361}
{"sequence-text": "UUGAAGCAAUAUUACGAUAA", "self-splicing fitness (ln)": 0.686}
{"sequence-text": "ACACAGCAAUAUUACGGUCA", "self-splicing fitness (ln)": 0.0237}
{"sequence-text": "UCAAAGCAAUAUUACGGAAU", "self-splicing fitness (ln)": -2.94}
{"sequence-text": "UGUAAGCAAUAUUACGAUCG", "self-splicing fitness (ln)": -0.129}
{"sequence-text": "CGCAAGCAAUAUUACGCUCG", "self-splicing fitness (ln)": -2.95}
{"sequence-text": "CUUUAGCAAUAUUACGCUCG", "self-splicing fitness (ln)": -0.602}

In: If you can, please state the reported self-splicing fitness (ln) value of CGAGAGCAAUAUUACGGAAG .
Out: -2.54

In: Param item = AGUCAGCAAUAUUACGCAUU ; retrieve measured self-splicing fitness (ln).
Out: -0.421

In: For the sequence shown here, GAAAAGCAAUAUUACGACCA , give the reported self-splicing fitness (ln).
Out: 0.235

In: Quick check: self-splicing fitness (ln) of ACGGAGCAAUAUUACGCGCG ?
Out: -0.429

====

Reported self-splicing fitness (ln) values are given for each entry in this list.
# protocol-text: self-splicing fitness, log relative to wild type (ln ratio); higher = more splicing; Tetrahymena group I intron in knt gene, E. coli kanamycin selection, DiMSum; sequences stand for … in CUCUCU…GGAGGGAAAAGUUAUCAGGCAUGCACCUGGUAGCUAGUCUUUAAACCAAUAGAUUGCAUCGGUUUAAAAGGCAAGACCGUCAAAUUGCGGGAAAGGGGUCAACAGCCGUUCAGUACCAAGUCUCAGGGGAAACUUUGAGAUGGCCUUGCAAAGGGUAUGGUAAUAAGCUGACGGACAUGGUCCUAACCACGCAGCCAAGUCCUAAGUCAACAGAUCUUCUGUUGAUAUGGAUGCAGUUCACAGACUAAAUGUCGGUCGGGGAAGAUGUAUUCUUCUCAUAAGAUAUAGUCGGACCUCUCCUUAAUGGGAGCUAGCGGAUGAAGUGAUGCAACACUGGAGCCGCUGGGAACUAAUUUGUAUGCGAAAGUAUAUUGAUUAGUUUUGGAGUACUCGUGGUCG
# measurement-parameters: 30 °C
Provide a numeric answer; units are not to be included.

In: May I ask what self-splicing fitness (ln) has been recorded for UUACAGCAAUAUUACGAUGG ?
Out: -1.16

In: Need self-splicing fitness (ln), item CUCCAGCAAUAUUACGGAAA
Out: -2.25

In: Quick one: self-splicing fitness (ln) of UCCUAGCAAUAUUACGUCGG ?
Out: -2.31
